All values here come from PubChem BioAssay.

experiment: inhibitors of TNFa-induced NFkB p65 translocation, primary screen, imaging, HUVEC, MLSMR starter and 10KST1 sets (AID 438); details: HUVEC TNFa-induced p65 nuclear translocation; measured here: nuclei count (cytotoxicity indicator), at 2.08 µM;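 note: compound added about 3h40 before a 20 min TNFalpha stimulation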
Assignment: determine reported cell count for the given molecules.

{"columns": ["molecule", "assay-endpoint", "observed-measurement"],
 "data": [
  ["COc1ccc(-n2c(SC)nc3ccccc3c2=O)cc1", "cell count", 594],
  ["CC(C)[C@H]1C(=O)N2CCC[C@H]2[C@]2(O)O[C@](NC(=O)[C@@H]3C=C4c5cccc6[nH]cc(c56)C[C@H]4N(C)C3)(C(C)C)C(=O)N12", "cell count", 501],
  ["CCCCSP1(=S)NCCCO1 (stereo not drawn)", "cell count", 490],
  ["CC(=C1C(=O)c2ccccc2C1=O)N1CCN(CCN=Cc2c(O)n(C)c(=O)n(C)c2=O)CC1", "cell count", 584],
  ["CC(=O)[C@@]1(O)CC[C@H]2[C@@H]3CC=C4C[C@@H](O)CC[C@]4(C)[C@H]3CC[C@@]21C", "cell count", 618]
]}

List cell count for every entry below, keeping the order given.
1. O=C(CN1CCN(Cc2cccc(Cl)c2)C1=O)N1CCC2(CC1)OCCO2
2. CN1CCc2nc(SCC(=O)OC(C)(C)C)c(C#N)cc2C1
3. Cn1c(C(=O)N2CCC3(CC2)OCCO3)cc2c(=O)n(C)c3ccccc3c21

1. 363
2. 606
3. 551

Hi! Can you tell me cell count for each of these molecules?
1. O=C(Cn1ncc2c3ccccc3n(Cc3ccc(F)cc3)c2c1=O)N1CCC2(CC1)OCCO2
2. Cc1ccc(C)c(C2(O)CC(C)N(C)CC2C)c1 (stereo not drawn)
3. CC(C)[C@@]1(NC(=O)[C@@H]2C[C@@H]3c4cccc5[nH]cc(c45)C[C@H]3N(C)C2)O[C@@]2(O)[C@@H]3CCCN3C(=O)[C@H](Cc3ccccc3)N2C1=O

1. 454
2. 530
3. 640

Dear colleague, could you please provide cell count for the molecules listed below?
1. O=c1[nH]c(=O)n(CCc2ccccc2)c(O)c1C=NCCCn1ccnc1
2. COCCOC(=O)C1=C(N)Oc2c(c(=O)oc3ccccc23)C1c1ccncc1 (stereo not drawn)

1. 364
2. 329

====

assay: endothelial E-selectin expression blockers – imaging, HUVEC, immunofluorescence, MLSMR starter and 10KST1 sets, primary screen (AID 487); details: HUVEC TNFalpha-induced E-selectin immunofluorescence imaging, at 2 µM; measured here: cell number, toxicity;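 note: 100% = median nuclei count of all wells on the same plate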
assay-endpoint: nuclei count (%)
Give bare numbers, in %.

Please review the entries below; each comes with its answer.
{"columns": ["compound", "unit-label", "nuclei count"],
 "data": [
  ["CCCC(=O)OCC[N+](C)(C)C", "%", 135],
  ["O=C1CC[C@@]2(O)[C@H]3Cc4ccc(O)c5c4[C@@]2(CCN3CC2CC2)[C@H]1O5", "%", 120],
  ["O=C(c1sc2ccccc2c1Cl)N1CCC2(CC1)OCCO2", "%", 105],
  ["CC(C)C(=O)N1CCN(CCN=Cc2c(O)n(C)c(=O)n(C)c2=O)CC1", "%", 112],
  ["CN1CC[C@@]23CCCC[C@@H]2[C@@H]1Cc1ccc(O)cc13", "%", 127],
  ["CC(C)C(=O)c1cn(Cc2ccccc2C#N)c2ccccc12", "%", 99.8],
  ["C[C@]12CCC(=O)C=C1CC[C@@H]1[C@@H]2CC[C@]2(C)C(=O)CC[C@@H]12", "%", 117],
  ["CC1(C)CC(n2[nH]c(=O)c3c2NC(=O)CSC3c2ccccc2)CCO1 (configuration not stated)", "%", 128],
  ["O=C1NC(=O)C(C/C=C/c2ccccc2)C(=O)N1", "%", 154],
  ["CC1(C)Cc2c(sc3c2C(=O)NC(c2cccnc2)N3)CO1 (configuration not stated)", "%", 106]
]}

Give measured nuclei count for every item shown.
1. CCCCc1nc(N2CCNCC2)c(C#N)c2c1CSC(C)(C)C2
2. CC(C)[C@H]1C(=O)N2CCC[C@H]2[C@]2(O)O[C@](NC(=O)[C@@H]3C=C4c5cccc6[nH]cc(c56)C[C@H]4N(C)C3)(C(C)C)C(=O)N12
3. CNC(=O)N(C)c1nnc(C(C)(C)C)s1
4. C[C@H]1CCCC(=O)CCC/C=C/c2cc(O)cc(O)c2C(=O)O1
5. COc1cccc(-n2c(C)nc3ccccc3c2=O)c1

135
122
73.8
108
161

I have 2 compounds here; please give me nuclei count for each one.
1. CC(=O)C1(c2ccccc2)CCNCC1
2. O=c1c2ccccc2nc(CSc2ncnc3nc[nH]c23)n1-c1ccccc1

1. 138
2. 103
